Each recorded value in this set is attributed to patent US20080269237A1.

The entries below are paired with their reported melting point.
Express the result in °C but write the number alone.

Below: 3 compounds and their reported melting point.
mol smiles	melting point, °C
O=C(/C=C/c1cccc(S(=O)(=O)N2CCN(CCOc3ccc4ccccc4c3)CC2)c1)NO	130
O=C(/C=C/c1cccc(S(=O)(=O)N2CCN(c3ccc(Cl)c(Cl)c3)CC2)c1)NO	193
O=C(/C=C/c1cccc(S(=O)(=O)N2CCN(CCc3ccc4ccccc4c3)CC2)c1)NO	184

Ask: // lookup melting point for O=C(/C=C/c1cccc(S(=O)(=O)N2CCN(Cc3ccc4c(c3)OCO4)CC2)c1)NO
Reply: 172

Ask: And for O=C(/C=C/c1cccc(S(=O)(=O)N2CCN(c3ccccc3Cl)CC2)c1)NO ?
Reply: 183

Ask: And for O=C(/C=C/c1cccc(S(=O)(=O)N2CCN(c3ncccn3)CC2)c1)NO ?
Reply: 200

###

measured attribute: melting point

Ask: // lookup melting point for COc1ccc2[nH]cc(CCN3CCN(C(=O)CCCCCCC(=O)NO)CC3)c2c1.O=C(O)C(=O)O
Reply: 122 to 125 °C

Ask: And for N#Cc1ccc(C(=O)N2CCN(C(=O)CCCCCCC(=O)NO)CC2)cc1 ?
Reply: 150 to 150.5 °C

Ask: And for O=C(CCCCCC(=O)N1CCN(C(=O)CCc2c[nH]c3ccccc23)CC1)NO ?
Reply: 152.5 to 153.5 °C

Ask: And for O=C(CCCCCCC(=O)N1CCN(c2ccccc2Cl)CC1)NO ?
Reply: 131 to 132 °C

Ask: And for O=C(CCCCCCC(=O)N1CCN(c2cccc(C(F)(F)F)c2)CC1)NO ?
Reply: 126 to 128 °C

Ask: And for O=C(CCCCCCC(=O)N1CCN(CCc2ccc3ccccc3c2)CC1)NO ?
Reply: 118 to 120 °C

Ask: And for O=C(CCCCCC(=O)N1CCN(c2cccc(Cl)c2)CC1)NO ?
Reply: 120 to 122 °C

Ask: And for O=C(CCCCCC(=O)N1CCN(c2ccc(Cl)cc2)CC1)NO ?
Reply: 119 to 121 °C

Ask: And for C/C(=N\O)c1ccc(N2CCN(C(=O)CCCCCCC(=O)NO)CC2)cc1 ?
Reply: 147 to 147.5 °C
